These data points were gathered from ChEMBL document CHEMBL4325920.

METHOD NOTES: Protein binding in mouse plasma
Format: ADME, cell-free
SETTINGS: read-out: PPB (converted)
ATTRIBUTE MEASURED: fraction unbound

- CC(C)(O)c1cccn2c(C3(c4ccc(Cl)cc4)CC3)nnc12 [BMS-823778 FREE BASE]: 0.13

* * *

TESTED TARGET: Cytochrome P450 3A4 (Homo sapiens)
Sequence (P08684 whole entry): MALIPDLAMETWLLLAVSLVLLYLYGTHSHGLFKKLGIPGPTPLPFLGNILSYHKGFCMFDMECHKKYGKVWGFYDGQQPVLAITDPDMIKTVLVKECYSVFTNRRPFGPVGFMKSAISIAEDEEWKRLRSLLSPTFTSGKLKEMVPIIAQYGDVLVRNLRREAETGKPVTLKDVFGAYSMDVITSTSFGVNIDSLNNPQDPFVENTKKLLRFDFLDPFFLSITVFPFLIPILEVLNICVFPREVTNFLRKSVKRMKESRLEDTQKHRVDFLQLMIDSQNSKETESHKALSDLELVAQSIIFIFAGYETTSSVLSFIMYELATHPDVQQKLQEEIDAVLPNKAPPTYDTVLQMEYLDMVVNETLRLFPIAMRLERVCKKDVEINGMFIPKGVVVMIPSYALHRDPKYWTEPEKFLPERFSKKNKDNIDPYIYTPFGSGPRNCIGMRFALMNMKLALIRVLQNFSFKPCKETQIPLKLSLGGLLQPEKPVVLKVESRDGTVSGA
ATTRIBUTE MEASURED: IC50

- CC(C)(O)c1cccn2c(C3(c4ccc(Cl)cc4)CC3)nnc12 [BMS-823778 FREE BASE]: > 30 µM

* * *

METHOD NOTES: Stability in mouse microsomes assessed as parent compound remaining after 30 mins
Format: ADME, Microsome
SETTINGS: read-out: Stability
ATTRIBUTE MEASURED: remaining at 0.5 h

* CC(C)(O)c1cccn2c(C3(c4ccc(Cl)cc4)CC3)nnc12 [BMS-823778 FREE BASE] | 96 to 100%

* * *

TESTED TARGET: hERG (KCNH2) (Homo sapiens, UniProt Q12809)
Sequence (Q12809 whole entry): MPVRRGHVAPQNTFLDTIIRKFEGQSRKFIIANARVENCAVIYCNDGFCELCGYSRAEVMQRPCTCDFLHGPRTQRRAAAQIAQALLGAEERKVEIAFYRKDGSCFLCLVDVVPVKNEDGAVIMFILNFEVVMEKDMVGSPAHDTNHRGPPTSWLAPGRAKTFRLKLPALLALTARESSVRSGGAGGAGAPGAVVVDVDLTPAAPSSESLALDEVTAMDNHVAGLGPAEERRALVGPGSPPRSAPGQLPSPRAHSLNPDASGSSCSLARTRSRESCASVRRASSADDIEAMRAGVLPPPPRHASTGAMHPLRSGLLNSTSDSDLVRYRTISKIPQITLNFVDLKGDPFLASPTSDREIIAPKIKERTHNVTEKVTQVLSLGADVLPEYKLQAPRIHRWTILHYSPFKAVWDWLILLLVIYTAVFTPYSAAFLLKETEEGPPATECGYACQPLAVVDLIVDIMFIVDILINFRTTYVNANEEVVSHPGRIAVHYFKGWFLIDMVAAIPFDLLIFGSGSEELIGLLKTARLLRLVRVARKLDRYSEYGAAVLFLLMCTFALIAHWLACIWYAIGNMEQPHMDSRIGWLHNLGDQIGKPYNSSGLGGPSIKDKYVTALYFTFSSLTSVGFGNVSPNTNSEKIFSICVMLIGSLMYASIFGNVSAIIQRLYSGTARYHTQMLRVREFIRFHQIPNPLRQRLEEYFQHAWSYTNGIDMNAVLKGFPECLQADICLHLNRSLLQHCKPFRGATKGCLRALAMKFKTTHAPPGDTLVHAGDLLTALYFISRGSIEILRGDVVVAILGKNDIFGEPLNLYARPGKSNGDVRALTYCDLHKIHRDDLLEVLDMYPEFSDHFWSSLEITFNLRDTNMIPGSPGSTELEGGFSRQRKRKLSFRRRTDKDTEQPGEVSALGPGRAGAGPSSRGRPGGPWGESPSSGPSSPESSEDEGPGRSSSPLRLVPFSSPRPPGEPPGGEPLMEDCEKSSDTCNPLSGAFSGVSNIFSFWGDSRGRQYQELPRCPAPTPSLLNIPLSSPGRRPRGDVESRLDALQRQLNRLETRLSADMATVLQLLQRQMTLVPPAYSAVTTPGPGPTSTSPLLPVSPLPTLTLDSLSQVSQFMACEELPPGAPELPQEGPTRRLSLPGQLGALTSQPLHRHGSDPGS
METHOD NOTES: Inhibition of human ERG at 30 uM by whole-cell patch clamp method relative to control
ATTRIBUTE MEASURED: inhibition at 30 µM (%)

• CC(C)(O)c1cccn2c(C3(c4ccc(Cl)cc4)CC3)nnc12 [BMS-823778 FREE BASE] = 31.2

* * *

TESTED TARGET: UniProt:P50172
Sequence (P50172 whole entry): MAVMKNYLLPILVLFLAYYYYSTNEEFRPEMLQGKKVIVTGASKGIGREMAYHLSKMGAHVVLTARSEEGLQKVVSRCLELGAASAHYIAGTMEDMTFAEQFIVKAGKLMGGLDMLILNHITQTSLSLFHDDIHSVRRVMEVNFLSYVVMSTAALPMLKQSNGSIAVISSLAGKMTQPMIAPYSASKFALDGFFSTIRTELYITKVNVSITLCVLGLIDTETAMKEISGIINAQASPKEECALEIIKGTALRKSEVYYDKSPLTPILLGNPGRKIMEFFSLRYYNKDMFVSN
METHOD NOTES: Inhibition of recombinant mouse 11beta-HSD1 expressed in HEK293 cell microsomes using [3H]cortisone as substrate after 4 hrs by homogeneous immuno-radiometric scintillation proximity assay
IC50 values for the molecules below.
ATTRIBUTE MEASURED: IC50

* OCC(O)c1cccn2c(C3(c4ccc(Cl)cc4)CC3)nnc12 (stereo not drawn) | > 10 µM
* CC(C)(C(=O)O)c1cccn2c(C3(c4ccc(Cl)cc4)CC3)nnc12 | > 10 µM
* CC(C)(O)CCc1cccn2c(C3(c4ccc(Cl)cc4)CC3)nnc12 | > 10 µM

* * *

EC50 values for the compounds below.
TESTED TARGET: Nuclear receptor subfamily 1 group I member 2 (Homo sapiens, UniProt O75469)
Sequence (O75469 whole entry): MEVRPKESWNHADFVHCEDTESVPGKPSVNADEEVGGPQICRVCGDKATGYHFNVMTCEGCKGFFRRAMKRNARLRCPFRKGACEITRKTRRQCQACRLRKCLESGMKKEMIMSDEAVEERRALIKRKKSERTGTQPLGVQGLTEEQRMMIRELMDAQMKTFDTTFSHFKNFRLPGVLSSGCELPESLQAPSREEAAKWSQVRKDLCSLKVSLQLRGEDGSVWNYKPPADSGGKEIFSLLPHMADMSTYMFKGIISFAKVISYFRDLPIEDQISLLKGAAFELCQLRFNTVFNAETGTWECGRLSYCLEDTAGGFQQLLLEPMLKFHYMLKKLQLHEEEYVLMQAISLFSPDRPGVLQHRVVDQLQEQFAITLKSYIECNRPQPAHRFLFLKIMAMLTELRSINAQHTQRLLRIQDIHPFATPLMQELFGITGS
METHOD NOTES: Activation of PXR (unknown origin)
ATTRIBUTE MEASURED: EC50

- OCC(O)c1cccn2c(C3(c4ccc(Cl)cc4)CC3)nnc12 (stereo not drawn): > 50 µM
- CC(C)(C(=O)O)c1cccn2c(C3(c4ccc(Cl)cc4)CC3)nnc12: > 50 µM
- CC(C)(O)c1cccn2c(C3(c4ccc(Cl)cc4)CC3)nnc12 [BMS-823778 FREE BASE]: > 50 µM
